Tested on: Escherichia coli
Assay: Minimum Inhibitory Concentration (MIC) test, growth inhibition in 96 well plates via optical density
Format: cell-based
Conditions: Escherichia coli; lowest concentration with complete growth inhibition; E. coli; read-out: MIC in ppm Escherichia coli
Listed here: items and their measured MIC.
REPORTED_ENDPOINT: MIC (mg/mL)

                                   compound  result_modifier  reported_measurement
0   CCOC(=O)CNC1=C/C(=N/c2ccccc2)CC(C)(C)C1                =                   2.5
1              CCCC(O)CO (stereo not shown)                =                    15
2     CC1(C)CC(NCC(=O)O)=C/C(=N/c2ccccc2)C1                =                    15
3  COc1ccc(/N=C2\CC(C)(C)CC3=C2SCC(C(=O)O)N3)cc1OC (stereo not shown)                >                    25
